Origin of values: patent US20140348834A1

- assayed-target: T1, human IL-17A (human, UniProt Q16552 24-155)
- T1 construct: Recombinant; biotinylated in the ELISA; also called hIL-17; hIL17A
- T1 sequence (Q16552 24-155): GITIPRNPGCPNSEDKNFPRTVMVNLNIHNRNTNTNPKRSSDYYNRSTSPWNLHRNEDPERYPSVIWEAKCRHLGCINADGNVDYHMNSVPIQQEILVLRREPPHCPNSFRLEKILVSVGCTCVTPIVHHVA
- experiment-summary: SPR (Biacore 3000), antibody captured by anti-Fc, antigen in solution;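 also: purified recombinant IL-17 antigens flowed over captured antibodies in HBS-EP buffer, global Langmuir one-to-one fit of association and dissociation phases, KD derived from koff over kon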
attribute-measured: pKd
For clarity, pKd is expressed as the negative log10 of concentration in mol/L.

// solved cases for pKd follow
IL17-h10F7.11 (antibody, V domains shown, IgG; constant regions not specified; also called h10F7.11 (VH.1a-Vk.2a)) VH: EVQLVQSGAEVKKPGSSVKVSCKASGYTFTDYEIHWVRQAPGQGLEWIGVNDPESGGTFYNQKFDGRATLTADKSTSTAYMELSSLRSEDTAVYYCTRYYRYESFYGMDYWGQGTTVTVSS VL: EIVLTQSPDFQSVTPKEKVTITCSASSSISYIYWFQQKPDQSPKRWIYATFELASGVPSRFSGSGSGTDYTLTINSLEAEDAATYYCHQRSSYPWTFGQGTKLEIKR ... 9.28
IL17-h5C5.21 (antibody, V domains shown, IgG; constant regions not specified; also called h5C5.21 (VH.1b-Vk.3c)) VH: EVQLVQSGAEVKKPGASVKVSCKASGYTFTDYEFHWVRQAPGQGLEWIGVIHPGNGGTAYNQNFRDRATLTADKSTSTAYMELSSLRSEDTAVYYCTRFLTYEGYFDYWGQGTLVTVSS VL: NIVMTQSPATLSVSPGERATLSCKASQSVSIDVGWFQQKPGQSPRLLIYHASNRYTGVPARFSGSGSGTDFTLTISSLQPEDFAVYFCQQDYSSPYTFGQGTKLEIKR ... 9.14
IL17-h5C5.8 (antibody, V domains shown, IgG; constant regions not specified; also called h5C5.8 (VH.1-Vk.1a)) VH: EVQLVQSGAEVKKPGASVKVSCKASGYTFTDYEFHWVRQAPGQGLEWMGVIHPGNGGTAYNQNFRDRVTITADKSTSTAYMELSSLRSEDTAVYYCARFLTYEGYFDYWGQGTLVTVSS VL: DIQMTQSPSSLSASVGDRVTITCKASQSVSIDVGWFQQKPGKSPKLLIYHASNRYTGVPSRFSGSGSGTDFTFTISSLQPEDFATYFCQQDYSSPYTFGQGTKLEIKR ... 9.41
IL17-h5C5.15 (antibody, V domains shown, IgG; constant regions not specified; also called h5C5.15 (VH.1b-Vk.3a)) VH: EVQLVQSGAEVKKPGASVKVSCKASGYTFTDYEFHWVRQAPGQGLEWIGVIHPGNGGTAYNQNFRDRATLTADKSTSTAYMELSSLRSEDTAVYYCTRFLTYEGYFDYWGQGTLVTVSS VL: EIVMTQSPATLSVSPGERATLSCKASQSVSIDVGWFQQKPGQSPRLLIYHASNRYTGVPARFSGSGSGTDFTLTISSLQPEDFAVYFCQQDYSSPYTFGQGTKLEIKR ... 9.34

get_value(item= IL17-h5C5.9 (antibody, V domains shown, IgG; constant regions not specified; also called h5C5.9 (VH.1b-Vk.1a)) VH: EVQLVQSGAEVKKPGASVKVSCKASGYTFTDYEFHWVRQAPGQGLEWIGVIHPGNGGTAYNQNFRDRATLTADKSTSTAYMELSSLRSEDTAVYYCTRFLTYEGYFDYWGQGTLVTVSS VL: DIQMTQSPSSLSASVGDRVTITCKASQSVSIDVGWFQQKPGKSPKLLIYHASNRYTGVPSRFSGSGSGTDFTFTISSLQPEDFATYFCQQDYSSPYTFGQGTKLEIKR , readout=pKd) returns 9.36
